Provide the reported T/C of each item.
System: L1210 leukemia ip in BDF1 mice, survival T/C
Assay: NCI In Vivo Anticancer Drug Screen. Data for tumor model L1210 Leukemia (intraperitoneal) in B6D2F1 (BDF1) mice
Conditions: endpoint: mean survival time; dose: 200.0 mg/kg/injection; schedule: Q04DX003 (ip); vehicle: Klucel (hydroxypropylcellulose) (HPC); higher = longer survival
Method: The antitumor activity of compounds was measured in mice bearing transplantable tumors. Survival or tumor size were measured and the results are expressed as the measurement made in the treated group (T) divided by the measurement made in the vehicle treated control group (C). The tumor model used in this assay is L1210 Leukemia (intraperitoneal) in B6D2F1 (BDF1) mice
Toxic doses and inconclusive results are not listed.

// compound COc1cc(C)c(C2NC(=O)c3ccccc3N2)cc1C (stereo unspecified) , assay L1210 leukemia ip in BDF1 mice, survival T/C, T/C value: 97 % of control

// compound O=C1CSC(c2ccccc2)N1 (stereo unspecified) , assay L1210 leukemia ip in BDF1 mice, survival T/C, T/C value: 100 % of control

// compound CCCCSc1ncnc2c1ncn2C1CCCCO1 (stereo unspecified) , assay L1210 leukemia ip in BDF1 mice, survival T/C, T/C value: 113 % of control

// compound `CN(C)c1ccc(/C=C/c2ccc(N(C)C)cc2)cc1` , assay L1210 leukemia ip in BDF1 mice, survival T/C, T/C value: 94 % of control

// compound ClCCCOC1CCCCO1 (stereo unspecified) , assay L1210 leukemia ip in BDF1 mice, survival T/C, T/C value: 95 % of control

// compound c1ccc(C2C(c3ccccc3)N2c2ccccc2)cc1 (stereo unspecified) , assay L1210 leukemia ip in BDF1 mice, survival T/C, T/C value: 94 % of control

// compound `CCSc1ncc(C(N)=O)c(N)n1` , assay L1210 leukemia ip in BDF1 mice, survival T/C, T/C value: 100 % of control

// compound `Cc1noc(C)c1C=O` , assay L1210 leukemia ip in BDF1 mice, survival T/C, T/C value: 95 % of control

// compound `COC(=O)c1c[nH]c2ccccc2c1=O` , assay L1210 leukemia ip in BDF1 mice, survival T/C, T/C value: 107 % of control

// compound `CN(C)c1ccc2c(c1)C(=NO)c1cc(N(C)C)ccc1-2` , assay L1210 leukemia ip in BDF1 mice, survival T/C, T/C value: 96 % of control

// compound `N#Cc1c(/N=C/c2ccc3c(c2)CCC3)oc(-c2ccccc2)c1-c1ccccc1` , assay L1210 leukemia ip in BDF1 mice, survival T/C, T/C value: 97 % of control

// compound `Brc1cc(Br)c(-c2c(Br)cc(Br)cc2Br)c(Br)c1` , assay L1210 leukemia ip in BDF1 mice, survival T/C, T/C value: 105 % of control

// compound `Cc1cccc(C)c1NC(=O)c1c(Cl)c(Cl)c(Cl)c(Cl)c1C(=O)O` , assay L1210 leukemia ip in BDF1 mice, survival T/C, T/C value: 102 % of control

// compound CC1C(N2CCOCC2)CS1(=O)=O (stereo unspecified) , assay L1210 leukemia ip in BDF1 mice, survival T/C, T/C value: 98 % of control

// compound `Nc1cc(N)cc(Cc2ccccc2)c1` , assay L1210 leukemia ip in BDF1 mice, survival T/C, T/C value: 102 % of control

// compound CCOC(=O)CCC1C(C#N)C2(Cl)C(Cl)=C(Cl)C1(Cl)C2(Cl)Cl (stereo unspecified) , assay L1210 leukemia ip in BDF1 mice, survival T/C, T/C value: 93 % of control

// compound `COc1cc(NC(=O)Nc2cc(Cl)ccc2C)c(OC)cc1Cl` , assay L1210 leukemia ip in BDF1 mice, survival T/C, T/C value: 101 % of control

// compound C#CC(O)C1OC2OC(C)(C)OC2C1O (stereo unspecified) , assay L1210 leukemia ip in BDF1 mice, survival T/C, T/C value: 101 % of control

// compound Cc1ccc(S(=O)(=O)OCC2C(c3ccccc3)CCC(c3ccccc3)C2COS(=O)(=O)c2ccc(C)cc2)cc1 (stereo unspecified) , assay L1210 leukemia ip in BDF1 mice, survival T/C, T/C value: 105 % of control

// compound `CCCCCCCCCCCCCCCCN(C)C(=S)c1ccc(OC)cc1` , assay L1210 leukemia ip in BDF1 mice, survival T/C, T/C value: 101 % of control

// compound `O=c1cc(-c2ccccc2)[nH]c2ccc(S(=O)(=O)O)cc12` , assay L1210 leukemia ip in BDF1 mice, survival T/C, T/C value: 106 % of control

// compound `C=COCCCCCC(C)C` , assay L1210 leukemia ip in BDF1 mice, survival T/C, T/C value: 105 % of control

// compound `C=CCc1ccc(OCCNC(=O)Nc2ccc(C)cc2[N+](=O)[O-])c(OC)c1` , assay L1210 leukemia ip in BDF1 mice, survival T/C, T/C value: 96 % of control

// compound `CC(C)CN(CC(C)C)c1nn[nH]n1` , assay L1210 leukemia ip in BDF1 mice, survival T/C, T/C value: 98 % of control

// compound `CCCCCc1c(C(F)(F)F)[nH]c(=O)[nH]c1=O` , assay L1210 leukemia ip in BDF1 mice, survival T/C, T/C value: 101 % of control

// compound `CC(=O)NNc1ccc([N+](=O)[O-])cc1` , assay L1210 leukemia ip in BDF1 mice, survival T/C, T/C value: 94 % of control
